test system: LOX IMVI; assay: cells; format: functional, cell-based; conditions: Homo sapiens, 24 h
Description: Cytotoxicity against human LOX IMVI cells assessed as reduction in cell viability incubated for 24 hrs by MTT assay
Listed here: items and their measured log10 of IC50.
Scale type: logarithmic (base 10). Underlying IC50 unit: µM.

I'd like to know its log10 of IC50. The molecule in question is Cc1ccc(S(=O)(=O)NCCCNc2nccc(-c3[nH]c(-c4ccccc4)nc3-c3ccc(Cl)c(O)c3)n2)cc1
0.78

Quick one: O=S(=O)(NCCCNc1nccc(-c2[nH]c(-c3ccccc3)nc2-c2ccc(Cl)c(O)c2)n1)c1cccc(F)c1
1.53

Would you mind doing O=S(=O)(NCCCNc1nccc(-c2[nH]c(-c3ccccc3)nc2-c2ccc(F)c(O)c2)n1)c1ccc(Cl)cc1 as well?
1.15

Record: COc1cc(-c2nc(-c3ccccc3)[nH]c2-c2ccnc(NCCCNS(=O)(=O)c3ccc(F)cc3)n2)ccc1Cl
0.66

Same for Cc1ccc(S(=O)(=O)NCCCNc2nccc(-c3[nH]c(-c4ccccc4)nc3-c3ccc(F)c(O)c3)n2)cc1
1.42

Okay, and COc1ccc(S(=O)(=O)NCCCNc2nccc(-c3[nH]c(-c4ccccc4)nc3-c3ccc(Cl)c(OC)c3)n2)cc1 ?
0.26

Next molecule up: O=S(=O)(NCCCNc1nccc(-c2[nH]c(-c3ccccc3)nc2-c2ccc(F)c(O)c2)n1)c1cccc2ccccc12
0.57

Then what about the molecule O=S(=O)(NCCCNc1nccc(-c2[nH]c(-c3ccccc3)nc2-c2ccc(F)c(O)c2)n1)c1ccc(Br)cc1 ?
0.75

---

molecular target: Serine/threonine-protein kinase B-raf (Homo sapiens, UniProt P15056, V600E); test: Inhibition of BRAF V600E mutant (unknown origin) using Ser/Thr 03 as substrate after 1 hr in presence of ATP by Z'-LYTE assay
Sequence (P15056 2-766 V600E limits assumed): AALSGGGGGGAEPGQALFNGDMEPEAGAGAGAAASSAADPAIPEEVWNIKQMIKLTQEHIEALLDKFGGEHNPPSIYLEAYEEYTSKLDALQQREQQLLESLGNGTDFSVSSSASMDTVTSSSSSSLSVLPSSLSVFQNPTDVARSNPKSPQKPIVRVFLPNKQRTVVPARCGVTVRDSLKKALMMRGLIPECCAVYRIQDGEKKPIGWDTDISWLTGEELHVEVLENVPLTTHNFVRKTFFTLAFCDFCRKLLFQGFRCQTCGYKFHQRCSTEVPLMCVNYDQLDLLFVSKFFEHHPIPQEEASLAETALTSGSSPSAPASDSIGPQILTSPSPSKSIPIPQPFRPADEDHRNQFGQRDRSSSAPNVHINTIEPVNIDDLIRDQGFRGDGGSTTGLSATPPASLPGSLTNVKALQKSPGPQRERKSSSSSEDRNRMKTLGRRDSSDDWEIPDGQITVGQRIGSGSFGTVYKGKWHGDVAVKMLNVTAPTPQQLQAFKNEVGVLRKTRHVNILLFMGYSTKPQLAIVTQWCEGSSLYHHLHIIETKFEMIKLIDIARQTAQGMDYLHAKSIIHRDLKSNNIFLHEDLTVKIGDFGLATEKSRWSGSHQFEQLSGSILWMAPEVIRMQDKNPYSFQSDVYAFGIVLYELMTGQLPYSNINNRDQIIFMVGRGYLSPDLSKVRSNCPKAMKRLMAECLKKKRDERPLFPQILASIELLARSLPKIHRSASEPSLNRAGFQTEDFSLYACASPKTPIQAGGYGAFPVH
pIC50: −log10 of the molar value.
pIC50 of 8 or higher: TRUE. Under 8: FALSE.

[[record]]
inputsmiles = "O=S(=O)(NCCCNc1nccc(-c2[nH]c(-c3ccccc3)nc2-c2ccc(F)c(O)c2)n1)c1cccc(F)c1"
classassignment = "FALSE"

[[record]]
inputsmiles = "O=S(=O)(NCCCNc1nccc(-c2[nH]c(-c3ccccc3)nc2-c2ccc(Cl)c(O)c2)n1)c1ccc(Br)cc1"
classassignment = "FALSE"

[[record]]
inputsmiles = "O=S(=O)(NCCCNc1nccc(-c2[nH]c(-c3ccccc3)nc2-c2ccc(F)c(O)c2)n1)c1ccccc1"
classassignment = "TRUE"

[[record]]
inputsmiles = "O=S(=O)(NCCCNc1nccc(-c2[nH]c(-c3ccccc3)nc2-c2ccc(F)c(O)c2)n1)c1ccc(O)cc1"
classassignment = "TRUE"

[[record]]
inputsmiles = "O=S(=O)(NCCCNc1nccc(-c2[nH]c(-c3ccccc3)nc2-c2ccc(F)c(O)c2)n1)c1ccc(Br)cc1"
classassignment = "FALSE"


Now take the following compound into account.
Evaluate O=S(=O)(NCCCNc1nccc(-c2[nH]c(-c3ccccc3)nc2-c2ccc(Cl)c(O)c2)n1)c1ccccc1 : pIC50 at minimum 8?
TRUE

---

Listed next: entries and their corresponding inhibition.
molecular target: Mitogen-activated protein kinase 14 (Homo sapiens, UniProt Q16539); experiment: Inhibition of p38 alpha (unknown origin) at 10 uM using Ser/Thr 15 as substrate incubated for 1 hr in presence of ATP by Z'-Lyte assay relative to control
Sequence (Q16539 whole entry): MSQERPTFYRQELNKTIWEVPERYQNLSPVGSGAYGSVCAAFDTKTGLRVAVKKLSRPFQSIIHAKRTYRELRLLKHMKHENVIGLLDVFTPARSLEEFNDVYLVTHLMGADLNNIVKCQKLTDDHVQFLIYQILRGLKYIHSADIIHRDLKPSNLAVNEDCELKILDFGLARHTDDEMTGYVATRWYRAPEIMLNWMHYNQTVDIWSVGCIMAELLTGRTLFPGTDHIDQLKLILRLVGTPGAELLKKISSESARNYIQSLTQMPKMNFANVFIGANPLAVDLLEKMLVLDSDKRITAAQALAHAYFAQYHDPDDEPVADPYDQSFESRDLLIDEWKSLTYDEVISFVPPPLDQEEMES
Please respond with the number in % and leave the unit unwritten.

[[record]]
inputsmiles = "COc1cc(-c2nc(-c3ccccc3)[nH]c2-c2ccnc(NCCCNS(=O)(=O)c3ccc(F)cc3)n2)ccc1F"
readoutkind = "inhibition"
displayunit = "%"
recordedmeasurement = 84.1

[[record]]
inputsmiles = "COc1cc(-c2nc(-c3ccccc3)[nH]c2-c2ccnc(NCCCNS(=O)(=O)c3ccc(C(F)(F)F)cc3)n2)ccc1F"
readoutkind = "inhibition"
displayunit = "%"
recordedmeasurement = 48.6

[[record]]
inputsmiles = "O=S(=O)(NCCCNc1nccc(-c2[nH]c(-c3ccccc3)nc2-c2ccc(F)c(O)c2)n1)c1ccccc1"
readoutkind = "inhibition"
displayunit = "%"
recordedmeasurement = 87

[[record]]
inputsmiles = "COc1cc(-c2nc(-c3ccccc3)[nH]c2-c2ccnc(NCCCNS(=O)(=O)c3ccc(F)cc3)n2)ccc1Cl"
readoutkind = "inhibition"
displayunit = "%"
recordedmeasurement = 62.1

[[record]]
inputsmiles = "O=S(=O)(NCCCNc1nccc(-c2[nH]c(-c3ccccc3)nc2-c2ccc(F)c(O)c2)n1)c1ccc(O)cc1"
readoutkind = "inhibition"
displayunit = "%"
recordedmeasurement = 92.8

[[record]]
inputsmiles = "O=S(=O)(NCCCNc1nccc(-c2[nH]c(-c3ccccc3)nc2-c2ccc(Cl)c(O)c2)n1)c1ccc(F)cc1"
readoutkind = "inhibition"
displayunit = "%"
recordedmeasurement = 85.5

[[record]]
inputsmiles = "COc1cc(-c2nc(-c3ccccc3)[nH]c2-c2ccnc(NCCCNS(=O)(=O)c3cccc4ccccc34)n2)ccc1Cl"
readoutkind = "inhibition"
displayunit = "%"
recordedmeasurement = 27.1

[[record]]
inputsmiles = "O=S(=O)(NCCCNc1nccc(-c2[nH]c(-c3ccccc3)nc2-c2ccc(F)c(O)c2)n1)c1cccc2ccccc12"
readoutkind = "inhibition"
displayunit = "%"
recordedmeasurement = 79.8

[[record]]
inputsmiles = "COc1cc(-c2nc(-c3ccccc3)[nH]c2-c2ccnc(NCCCNS(=O)(=O)c3ccccc3)n2)ccc1F"
readoutkind = "inhibition"
displayunit = "%"
recordedmeasurement = 83.5

[[record]]
inputsmiles = "O=S(=O)(NCCCNc1nccc(-c2[nH]c(-c3ccccc3)nc2-c2ccc(Cl)c(O)c2)n1)c1cccc(F)c1"
readoutkind = "inhibition"
displayunit = "%"
recordedmeasurement = 78.6


Param item = O=S(=O)(NCCCNc1nccc(-c2[nH]c(-c3ccccc3)nc2-c2ccc(F)c(O)c2)n1)c1ccc(F)cc1 ; retrieve measured inhibition.
91.4

Param item: O=S(=O)(NCCCNc1nccc(-c2[nH]c(-c3ccccc3)nc2-c2ccc(F)c(O)c2)n1)c1ccc(C(F)(F)F)cc1
65.4
